Listed next: entries and their corresponding inhibition at 30 µM.
measurementTarget: hSARM1 (Homo sapiens, UniProt Q6SZW1)
Sequence (Q6SZW1 28-724): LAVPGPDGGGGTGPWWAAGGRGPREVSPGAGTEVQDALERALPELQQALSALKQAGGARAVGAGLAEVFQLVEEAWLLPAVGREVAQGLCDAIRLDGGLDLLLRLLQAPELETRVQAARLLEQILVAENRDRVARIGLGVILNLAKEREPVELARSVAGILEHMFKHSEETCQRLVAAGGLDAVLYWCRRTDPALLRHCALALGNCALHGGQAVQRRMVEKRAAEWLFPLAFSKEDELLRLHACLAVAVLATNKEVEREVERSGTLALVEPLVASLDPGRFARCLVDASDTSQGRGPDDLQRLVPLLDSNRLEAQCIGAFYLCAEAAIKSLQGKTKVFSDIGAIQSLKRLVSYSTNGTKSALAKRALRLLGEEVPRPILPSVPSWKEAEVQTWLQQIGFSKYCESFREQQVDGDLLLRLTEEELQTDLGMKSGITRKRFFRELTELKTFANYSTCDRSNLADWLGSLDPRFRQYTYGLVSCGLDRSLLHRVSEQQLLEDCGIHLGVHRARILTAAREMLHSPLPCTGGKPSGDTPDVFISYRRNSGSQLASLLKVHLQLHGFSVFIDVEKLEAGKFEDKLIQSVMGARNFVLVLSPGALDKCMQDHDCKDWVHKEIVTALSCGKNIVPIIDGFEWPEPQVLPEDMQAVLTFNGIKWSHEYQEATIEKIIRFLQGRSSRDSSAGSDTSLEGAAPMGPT
assaySummary: Human SARM1 activity measurement in HEK293 cells transiently transfected with ΔN-hSARM1 (PC6 fluorescent probe)
Format: cell-based
Set-up: expressed in transfected cells; host or cells: HEK293, pcDNA3 expression vector
measurementContext: inhibition rate; compound 30 µM; PC6 50 µM; HEK293 cells expressing ΔN-hSARM1; approximately 48 hours from transfection; read-out: Evaluation on hSARM1 inhibitory

# entrySmiles, valueReported
rows = [
    ("O=C(Cc1ccc(C(F)(F)F)cc1)Nc1ccc(CNC(=O)c2cccnc2)cn1", "> 75%"),
    ("COc1ccc(C(=O)Nc2ccc(CNC(=O)c3cccnc3)cn2)cc1", "> 75%"),
    ("O=C(CNC(=O)c1cccnc1)NCCNC(=O)CNC(=O)c1cccnc1", "> 10%"),
    ("O=C(NCc1ccc(NC(=O)c2ccccn2)nc1)c1cccnc1", "> 75%"),
    ("CCCC(=O)Nc1ccc(CNC(=O)c2cccnc2)cn1", "> 25%"),
]

Returns the measured inhibition at 30 µM for the input compound. Input: O=C(NCCCOCCOCCCNC(=O)c1cnc2ccccc2c1)c1cccnc1
> 25%

Returns the measured inhibition at 30 µM for the input compound. Input: Cc1ccc(/C=C/C(=O)Nc2ccc(CNC(=O)c3cccnc3)cn2)cc1
> 75%

Returns the measured inhibition at 30 µM for the input compound. Input: O=C(NCCCOCCOCCCNC(=O)c1ccc2ncccc2c1)c1cccnc1
> 25%

Returns the measured inhibition at 30 µM for the input compound. Input: O=C(NCc1ccc(NC(=O)c2cnc3ccccc3c2)nc1)c1cccnc1
> 75%

###

System: primary cultured cells of mouse fetus-derived dorsal root ganglia (DRGs)
assaySummary: Suppression of axonal degeneration after axotomy in DRG explant culture
Format: cell-based
measurementContext: Mus musculus; minimum concentration at which axonal degeneration was suppressed (DI 0.3 or less); 24 hours after axotomy; read-out: Evaluation on protection against degeneration
valueType: minimal effective concentration

These solved cases illustrate the format of a correct answer.
# compound, minimal effective concentration
data = [
    ("O=C(NCc1cccc(CNC(=O)c2cccnc2)n1)c1ccccc1", "0.1 to 1 µM"),
    ("O=C(/C=C/c1cccnc1)NCc1cccc(NC(=O)/C=C/c2cccnc2)c1", "≤ 0.01 µM"),
    ("O=C(CNC(=O)c1cccnc1)NCCNC(=O)CNC(=O)c1cccnc1", "0.1 to 1 µM"),
    ("O=C(/C=C/c1cccnc1)Nc1ccc(NC(=O)/C=C/c2cccnc2)cc1", "≤ 0.01 µM"),
    ("O=C(/C=C/c1cccnc1)NCCCOc1cccc(O)c1", "≤ 0.01 µM"),
]

# ---- query compound ----
Returns the measured minimal effective concentration for the input compound. Input: CCCC(=O)Nc1ccc(CNC(=O)c2cccnc2)cn1
≤ 0.01 µM

###

measurementTarget: hSARM1 (Homo sapiens)
assaySummary: Human SARM1 activity measurement in HEK293 cells transiently transfected with ΔN-hSARM1 (PC6 fluorescent probe)
Format: cell-based
Set-up: expressed in transfected cells; host or cells: HEK293, pcDNA3 expression vector
measurementContext: inhibition rate; compound 30 µM; PC6 50 µM; HEK293 cells expressing ΔN-hSARM1; approximately 48 hours from transfection; read-out: Evaluation on hSARM1 inhibitory
Source text: […]
valueType: inhibition at 30 µM

# molecule, inhibition at 30 µM
data = [
    ("NCc1ccc(C(=O)N2CCC(CCCCNC(=O)/C=C/c3cccnc3)CC2)cc1 [compound 1]", "> 75%"),
    ("Cc1cc(C)cc(C(=O)Nc2ccc(CNC(=O)c3cccnc3)cn2)c1 [Compound 136]", "> 75%"),
    ("O=C(Cc1ccc2ccccc2c1)Nc1ccc(CNC(=O)c2cccnc2)cn1 [Compound 123]", "> 75%"),
    ("O=C(/C=C/c1ccccc1)Nc1ccc(CNC(=O)c2cccnc2)cn1 [compound 74]", "> 75%"),
    ("CC(=O)NCc1ccc(OCCOCCNC(=O)c2cccnc2)cc1 [compound 21]", "> 50%"),
    ("CC(C)(C)CC(=O)Nc1ccc(CNC(=O)c2cccnc2)cn1 [Compound 182]", "> 75%"),
    ("O=C(NCc1ccc(NC(=O)c2cccnc2)nc1)c1cccnc1 [Compound 120]", "> 25%"),
    ("O=C(NCc1ccc(NC(=O)c2ccc(OC(F)(F)F)cc2)nc1)c1cccnc1 [compound 87]", "> 50%"),
    ("O=C(NCc1ccc(CNC(=O)c2cccnc2)nc1)c1cccnc1 [Compound 146]", "> 50%"),
    ("O=C(NCCCCCCNC(=O)c1cncc(O)c1)c1cccnc1 [compound 57]", "> 75%"),
]

Which inhibition at 30 µM is reported with hSARM1 (Homo sapiens) for this entry: O=C(NCc1ccc(NC(=O)c2cccc(Cl)c2)nc1)c1cccnc1 [Compound 132] ?
> 75%

Which inhibition at 30 µM is reported with hSARM1 (Homo sapiens) for this entry: O=C(NCc1ccc(NC(=O)c2cc(F)cc(C(F)(F)F)c2)nc1)c1cccnc1 [compound 84] ?
> 75%

Which inhibition at 30 µM is reported with hSARM1 (Homo sapiens) for this entry: O=C(NCc1ccc(NC(=O)c2cc(F)cc(F)c2)nc1)c1cccnc1 [Compound 138] ?
> 75%

Which inhibition at 30 µM is reported with hSARM1 (Homo sapiens) for this entry: NCCOCCOCCOCCCCCCCCNC(=O)c1cccnc1 [compound 9] ?
> 75%

Which inhibition at 30 µM is reported with hSARM1 (Homo sapiens) for this entry: CC(C)(C)OC(=O)NCCOCCOCCNC(=O)c1cccnc1 [compound 71] ?
> 50%

Which inhibition at 30 µM is reported with hSARM1 (Homo sapiens) for this entry: O=C(/C=C/c1cccnc1)NCCCOc1cccc(O)c1 [compound 23] ?
> 75%

Which inhibition at 30 µM is reported with hSARM1 (Homo sapiens) for this entry: O=C(NCCCCCCCCOCCO)c1cccnc1 [compound 4] ?
> 75%

Which inhibition at 30 µM is reported with hSARM1 (Homo sapiens) for this entry: O=C(NCc1ccc(NC(=O)C2CCOCC2)nc1)c1cccnc1 [Compound 114] ?
> 75%

Which inhibition at 30 µM is reported with hSARM1 (Homo sapiens) for this entry: O=C(/C=C/c1cccnc1)NCCCOc1ccc(CNC(=O)c2cccnc2)cc1 [compound 53] ?
> 75%

Which inhibition at 30 µM is reported with hSARM1 (Homo sapiens) for this entry: O=C(NCc1cccc(CN2Cc3ccccc3C2=O)n1)c1cccnc1 [compound 92] ?
> 10%

Which inhibition at 30 µM is reported with hSARM1 (Homo sapiens) for this entry: CCCCC(=O)Nc1ccc(CNC(=O)c2cccnc2)cn1 [Compound 159] ?
> 50%

Which inhibition at 30 µM is reported with hSARM1 (Homo sapiens) for this entry: O=C(NCc1ccc(NC(=O)c2ccccc2)c(Cl)c1)c1cccnc1 [Compound 111] ?
> 10%

Which inhibition at 30 µM is reported with hSARM1 (Homo sapiens) for this entry: CC(=O)NCc1ccc(OCCCNC(=O)c2cccnc2)cc1 [compound 20] ?
> 75%

Which inhibition at 30 µM is reported with hSARM1 (Homo sapiens) for this entry: CCC(=O)Nc1ccc(CNC(=O)c2cccnc2)cn1 [Compound 157] ?
> 10%

Which inhibition at 30 µM is reported with hSARM1 (Homo sapiens) for this entry: O=C(Nc1ccc(CCc2ccc(NC(=O)c3cccnc3)cc2)cc1)c1cccnc1 [compound 101] ?
> 75%

Which inhibition at 30 µM is reported with hSARM1 (Homo sapiens) for this entry: CC(=O)NCc1ccc(OCCOCCNC(=O)/C=C/c2cccnc2)cc1 [compound 22] ?
> 75%
